- experiment-summary: Plasma pharmacokinetics in patients
- Type: in vivo, human
- study-conditions: human, plasma, oral, 80 mg, AUC 0-24, geometric mean, Day 15, 80 mg QD, 3 patients
measure: AUC(0-t) (µM·h)

1) CS(=O)(=O)N1CCN(Cc2cc3nc(-c4cccc5[nH]ncc45)nc(N4CCOCC4)c3s2)CC1
9.86

----------
- experiment-summary: Plasma pharmacokinetics in patients
- Assay type: in vivo, human
- study-conditions: human, plasma, oral, 100 mg, AUC 0-24, geometric mean, Day 1, 100 mg QD, 5 patients
measure: AUC(0-t) (µM·h)

1) CS(=O)(=O)N1CCN(Cc2cc3nc(-c4cccc5[nH]ncc45)nc(N4CCOCC4)c3s2)CC1 [pictilisib]
3.19
